test: chemical genetic growth profiling, strain panel (AID 1159580);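 note: tested at 20 µM; growth read once vehicle control cultures reached saturation at 30 °C; 1 = growth at the plate median or of vehicle wells; lower values mean less growth of the strain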; conditions: S. cerevisiae deletion strains, growth OD, locus YDR335W, strain msn5, active compounds read low
In all, about 5,500 compounds went through this assay and about 2,000 (36%) were called active. Another 18% or so got no clear call; they are omitted. Some of the results follow.
Measured property: normalized growth
Answers are plain numbers.

Please supply normalized growth for each of the following items, keeping them in order.
1. C[N+]1(C)C[C@H](O)[C@H](C(=O)[O-])C1
2. Nc1nc(/C(=C/CC(=O)O)C(=O)N[C@@H]2C(=O)N3C(C(=O)O)=CCS[C@H]23)cs1
3. Cc1cc(N)c2ccccc2[n+]1CCCCCCCCCC[n+]1c(C)cc(N)c2ccccc21
4. O=C1CC2(CCCC2)CC(=O)N1CCCCN1CCN(c2ncccn2)CC1
5. CN(C)C(=O)C(CCN1CCC(O)(c2ccc(Cl)cc2)CC1)(c1ccccc1)c1ccccc1
6. COC1=CC(=O)C=C(OC)C1=O
7. CC1(C)C(=O)CC[C@@]2(C)C1C[C@@H](O)[C@@]1(C)C3=CC(=O)O[C@@H](c4ccoc4)[C@]3(C)CCC21 (some centres undefined)
8. CC1(C)O[C@@H]2CC3C4C[C@H](F)C5=CC(=O)CC[C@]5(C)C4[C@@H](O)C[C@]3(C)[C@]2(C(=O)CO)O1 (some centres undefined)

Result:
[1.01, 1.01, 0.0637, 1, 1, 1.01, 1.01, 1]

Ask: Name the recorded normalized growth for CC(=O)O[C@@H]1CC2C(C)(CC[C@H](O)C2(C)C)C2CC[C@]3(C)C(=CC(=O)O[C@H]3c3ccoc3)C21C (some centres undefined) .
Result: 1.02

* * *

I'd appreciate it if you could supply normalized growth values for the items below.
assay: chemical genetic growth profiling, strain panel (AID 1159580);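 note: tested at 20 µM; growth read once vehicle control cultures reached saturation at 30 °C; 1 = growth at the plate median or of vehicle wells; lower values mean less growth of the strain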; conditions: S. cerevisiae deletion strains, growth OD, locus YGL240W, strain doc1, active compounds read low
Hit rate of the full screen: of about 5,500 compounds, about 2,000 (36%) were called active. Another 18% or so got no clear call; they are omitted. The list shows a part of the results.
Numbers only.

# count of solved cases: 4
COc1ccccc1N1CCN(CCCNc2cc(=O)n(C)c(=O)n2C)CC1: 0.996
CN(C)CC[C@H](c1ccc(Cl)cc1)c1ccccn1: 1.01
CC(C)c1cccc(C(C)C)c1O: 0.983
CCC(=O)O[C@]1(C(=O)CCl)[C@@H](C)CC2C3CCC4=CC(=O)C=C[C@]4(C)[C@@]3(F)[C@@H](O)C[C@@]21C (stereo partly drawn): 1.02

Please supply normalized growth for each of the following items, keeping them in order.
1. CCC(=O)OCC(=O)C1(OC(=O)CC)C(C)CC2C3CCC4=CC(=O)C=CC4(C)C3(Cl)C(O)CC21C (stereo not drawn)
2. CO[C@@H]1[C@@H](OC(N)=O)[C@@H](O)[C@H](Oc2ccc3c(O)c(NC(=O)c4ccc(O)c(CC=C(C)C)c4)c(=O)oc3c2C)OC1(C)C
3. Oc1ccc2c3c1OC1[C@@H](O)CC[C@@]4(O)[C@@H](C2)N(CC2CCC2)CC[C@]314 (stereo partly drawn)
4. CC(C)c1cccc(O)c(=O)c1

Result:
0.974
1.01
1.01
0.0871

* * *

experiment: chemical genetic growth profiling, strain panel (AID 1159580);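 note: tested at 20 µM; growth read once vehicle control cultures reached saturation at 30 °C; 1 = growth at the plate median or of vehicle wells; lower values mean less growth of the strain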; conditions: S. cerevisiae deletion strains, growth OD, locus YER167W, strain BCK2, active compounds read low
In all, about 5,500 compounds went through this assay and about 2,000 (36%) were called active. About 18% were inconclusive and are not listed. This is one part of the list.
Measured property: normalized growth
Numbers only.

# count of solved cases: 4
CO[C@H]1[C@H](O)[C@@H](O[C@H]2CC[C@]3(C=O)C4CC[C@]5(C)[C@@H](C6=CC(=O)OC6)CC[C@]5(O)C4CC[C@@H]3C2)O[C@@H](C)[C@@H]1O (stereo not given in full): 0.995
C[C@H]1O[C@@H](O[C@H]2[C@@H](O)C[C@H](O[C@H]3[C@@H](O)C[C@H](O[C@H]4CC[C@]5(C)C6C[C@@H](O)[C@]7(C)[C@@H](C8=CC(=O)OC8)CC[C@]7(O)C6CC[C@@H]5C4)O[C@@H]3C)O[C@@H]2C)C[C@H](O)[C@@H]1O (stereo not given in full): 0.992
C[C@H]1O[C@@H](O[C@H]2[C@@H](O)C[C@H](O[C@H]3[C@@H](O)C[C@H](O[C@H]4CC[C@]5(C)C6CC[C@]7(C)[C@@H](C8=CC(=O)OC8)CC[C@]7(O)C6CC[C@@H]5C4)O[C@@H]3C)O[C@@H]2C)C[C@H](O)[C@@H]1O (stereo not given in full): 1
C[C@@H]1O[C@@H](O[C@H]2CC[C@]3(C=O)C4CC[C@]5(C)[C@@H](C6=CC(=O)OC6)CC[C@]5(O)C4CC[C@]3(O)C2)[C@H](O)[C@H](O)[C@H]1O (stereo not given in full): 0.999

Ask: Name the recorded normalized growth for COC1CC(O[C@H]2CC[C@]3(C=O)C4CC[C@]5(C)C(C6=CC(=O)OC6)CC[C@]5(O)C4CC[C@]3(O)C2)OC(C)C1O (stereo not given in full) .
Result: 1.03
